molecular target: Cellular tumor antigen p53 (Homo sapiens) (UniProt P04637); test: kinase inhibitors altering GFP-p53 stability in HPV16-positive cells, imaging, known kinase inhibitor set, EGFP/DsRed ratio (AID 1053116); details: stronger effect = higher value; measured here: GFP-p53 positive objects count;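 further: test concentration not given here; cells exposed to compounds for 24 h at 37 °C before reading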
Sequence (P04637 whole entry, looked up): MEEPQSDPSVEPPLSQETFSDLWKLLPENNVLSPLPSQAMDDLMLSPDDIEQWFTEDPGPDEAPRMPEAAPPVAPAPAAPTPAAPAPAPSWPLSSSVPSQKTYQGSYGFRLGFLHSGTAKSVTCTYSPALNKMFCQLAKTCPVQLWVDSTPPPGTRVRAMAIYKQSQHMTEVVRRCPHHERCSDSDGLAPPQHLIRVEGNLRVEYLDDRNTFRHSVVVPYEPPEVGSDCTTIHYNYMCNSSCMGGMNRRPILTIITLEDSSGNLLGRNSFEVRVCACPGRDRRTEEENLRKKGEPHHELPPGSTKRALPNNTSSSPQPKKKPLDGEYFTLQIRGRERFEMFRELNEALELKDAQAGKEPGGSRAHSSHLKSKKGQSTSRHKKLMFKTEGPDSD
Outcome: Fulfilled for EGFP object count of at least 10; Not fulfilled for anything lower.

COc1cc2ncn(-c3cc(OCc4ccccc4C(F)(F)F)c(C(=O)N(C)C)s3)c2cc1OC = Not fulfilled

Input line: Reported EGFP object count at or above 10? Cn1cc(C2=C(c3cccc4ccccc34)C(=O)NC2=O)c2ccccc21
Output line: Fulfilled

Input line: Given the entry COC(=O)Nc1nc2ccc(S(=O)(=O)c3ccc(NC(=O)Nc4cc(C(F)(F)F)ccc4F)cc3)cc2[nH]1 , answer whether its EGFP object count meets or surpasses 10.
Output line: Not fulfilled

Input line: Evaluate Nc1ccc(C#Cc2cncnc2Nc2ccc(OCc3cccc(F)c3)c(Cl)c2)cc1 : EGFP object count at minimum 10?
Output line: Not fulfilled

Input line: Is it the case that Cn1cc(C2=C(c3cccc(NCC(O)CO)c3)C(=O)NC2=O)c2cc(Cl)ccc21 (centres undefined) has EGFP object count reaching or exceeding 10?
Output line: Fulfilled

Input line: Could you please find out whether Cn1cc(C2=C(c3cccc([N+](=O)[O-])c3)C(=O)NC2=O)c2ccccc21 has EGFP object count that meets 10 or exceeds it?
Output line: Fulfilled
